- Tested on: P. aeruginosa 2297-con (AmpC derepressed)
- assay explanation: MIC determination, broth microdilution (CLSI)
- Format: cell-based
- stated conditions: strain 8
Reported strain 8 MIC values follow for various compounds
Your answer should be a plain number; it is taken to be in µg/mL.

{"compound": "C[C@H]1[C@H](NC(=O)/C(=N\\OC(COc2ccc(C(=N)N)cc2)C(=O)O)c2csc(N)n2)C(=O)N1S(=O)(=O)O (mixture of isomers) [Example 26B]", "experimental system": "P. aeruginosa 2297-con (AmpC derepressed)", "strain 8 MIC, µg/mL": 32}

Field strain 8 MIC (entry CC1(C)[C@H](NC(=O)/C(=N\OC(CO)COc2ccc(C(=N)N)cc2)c2csc(N)n2)C(=O)N1OS(=O)(=O)O (mixture of isomers) [Example 45A] ) reads 8

Field strain 8 MIC (entry C[C@H]1[C@H](NC(=O)/C(=N\OC(COc2ccc(C(=N)N)cc2)C(=O)O)c2csc(N)n2)C(=O)N1S(=O)(=O)O (mixture of isomers) [Example 26A] ) reads 8
